A collection of molecules and their measured pIC50
# system: recombinant mouse GALK1 (Mus musculus, UniProt Q9R0N0)
# Sequence (Q9R0N0 whole entry): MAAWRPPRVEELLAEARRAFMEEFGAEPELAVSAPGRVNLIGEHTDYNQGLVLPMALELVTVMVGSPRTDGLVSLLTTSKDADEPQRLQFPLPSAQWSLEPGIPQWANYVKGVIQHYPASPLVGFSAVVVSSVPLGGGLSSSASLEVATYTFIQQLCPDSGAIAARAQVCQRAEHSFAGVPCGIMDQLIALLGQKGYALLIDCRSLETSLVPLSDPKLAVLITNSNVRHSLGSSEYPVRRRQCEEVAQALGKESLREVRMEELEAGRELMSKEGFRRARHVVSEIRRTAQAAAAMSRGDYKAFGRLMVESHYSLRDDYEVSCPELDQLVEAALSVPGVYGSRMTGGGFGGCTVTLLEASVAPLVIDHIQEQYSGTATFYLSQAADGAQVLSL
# method_description: mGALK1 biochemical activity assay (Kinase-Glo Plus, ATP depletion)
# details: Tables 2-15; 35 μM ATP, 100 μM galactose, 1 h; bracketed figure after some values is undefined and not reported; read-out: mGALK IC50
Value format note: pIC50 is -log10 of concentration (mol/L); just state the number.

Use the examples below as a reference point.
CC1=C(C(=O)Nc2ccc(-c3cn[nH]c3)cc2)C(c2ccccc2Cl)N=C(Nc2nc3ccccc3o2)N1 (centres unmarked) [Compound 179] ... 4.91
CC1=C(C(=O)Nc2cc(C(=O)O)ccn2)C(c2ccc(-c3ccc(C)nc3)cc2Cl)N=C(Nc2nc3ccc(F)cc3o2)N1 (centres unmarked) [Compound 69] ... 5.91
CCn1nc(C)c(CNC(=O)C2=C(C)NC(Nc3nc4ccc(F)c(N)c4o3)=NC2c2ccc(C)cc2Cl)c1F (centres unmarked) [Compound 129] ... 5.66
CC1=C(C(=O)Nc2cc(C(=O)O)ccn2)[C@@H](c2ccccc2Cl)N=C(Nc2nc3cccc(N)c3o2)N1 [Compound 25] ... 4.46
CC1=C(C(=O)NCc2cnn(C)c2)C(c2ccc(C)cc2Cl)N=C(Nc2nc3cccc(N)c3o2)N1 (racemic) [Compound 83] ... 5.66

Shifting focus to the molecule that follows.
Input line: Indicate the recorded pIC50 value for this molecule: CC1=C(C(=O)Nc2cccc(-c3cn[nH]c3)c2)C(c2ccccc2Cl)N=C(Nc2nc3ccccc3o2)N1 (centres unmarked) [Compound 178]
Output line: 4.41

----------
# system: recombinant human GALK1 (Homo sapiens)
# Sequence (P51570 whole entry): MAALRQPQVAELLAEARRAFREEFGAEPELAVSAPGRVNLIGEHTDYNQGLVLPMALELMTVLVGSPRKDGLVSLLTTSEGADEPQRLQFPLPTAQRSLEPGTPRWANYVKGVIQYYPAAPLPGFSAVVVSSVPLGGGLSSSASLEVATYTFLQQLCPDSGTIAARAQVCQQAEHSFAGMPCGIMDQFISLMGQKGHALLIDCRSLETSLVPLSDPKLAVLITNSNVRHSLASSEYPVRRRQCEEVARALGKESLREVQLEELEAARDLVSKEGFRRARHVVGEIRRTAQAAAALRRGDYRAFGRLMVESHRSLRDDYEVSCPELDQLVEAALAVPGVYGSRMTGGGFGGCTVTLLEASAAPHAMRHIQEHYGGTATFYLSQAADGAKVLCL
# method_description: hGALK1 biochemical activity assay (Kinase-Glo Plus, ATP depletion)
# details: recombinant human GALK1, Kinase-Glo Plus ATP depletion; read-out: hGALK
The compounds listed here are annotated with their IC50.
Please reply with the bare figure in µM and do not write the unit itself.

Example compounds with recorded IC50:
CC1=C(C(=O)Nc2ccc(C#N)cc2)C(c2ccccc2Cl)N=C(Nc2nc3ccccc3o2)N1 (stereo not shown) ... 10.9
CC1=C(C(=O)Nc2cc(C(=O)O)ccn2)C(c2cccc(C(F)(F)F)c2Cl)N=C(Nc2nc3ccc(F)cc3o2)N1 (stereo not shown) ... 19.3

Input line: For recombinant human GALK1 (Homo sapiens), give the measured IC50 of the entry CC1=C(C(=O)Nc2cc(C(=O)O)ccn2)[C@@H](c2ccccc2Cl)N=C(Nc2nc3ccccc3o2)N1
Output line: 12.2

Input line: // fetch IC50; item: CC1=C(C(=O)Nc2ccc(CN3CCOCC3)cc2)C(c2ccccc2Cl)N=C(Nc2nc3ccccc3o2)N1 (stereo not shown) ; system: recombinant human GALK1 (Homo sapiens)
Output line: 5.44

----------
Item-by-item account of IC50
# system: recombinant mouse GALK1 (Mus musculus)
# method_description: mGALK1 biochemical activity assay (Kinase-Glo Plus, ATP depletion)
# details: recombinant mouse GALK1, Kinase-Glo Plus ATP depletion; read-out: mGALK
I'd appreciate it if you included the unit after the number.

Some compounds with known IC50 results, for comparison:
CC1=C(C(=O)Nc2cc(C(=O)O)ccn2)C(c2ccc(N3CCCC3)cc2Cl)N=C(Nc2nc3ccc(F)cc3o2)N1 (stereo not drawn) ... 10.9 µM
CC1=C(C(=O)Nc2cc(C(=O)O)ccn2)C(c2ccccc2Cl)N=C(Nc2nc3cc(F)ccc3o2)N1 (stereo not drawn) ... 17.2 µM
CC1=C(C(=O)Nc2ccc(CO)cn2)C(c2ccccc2Cl)N=C(Nc2nc3ccc(F)cc3o2)N1 (stereo not drawn) ... 19.3 µM
CC1=C(C(=O)Nc2ccccn2)C(c2ccccc2Cl)N=C(Nc2nc3cccc(N)c3o2)N1 (stereo not drawn) ... 19.3 µM
CC1=C(C(=O)NCc2ccccc2O)C(c2ccccc2Cl)N=C(Nc2nc3ccccc3o2)N1 (stereo not drawn) ... 10.9 µM

Input line: Tell us which IC50 value is on record for CC1=C(S(C)(=O)=O)C(c2ccccc2Cl)N=C(Nc2nc3ccccc3o2)N1 (stereo not drawn)
Output line: 19.3 µM

Input line: Specify measured IC50 for CC1=C(C(=O)Nc2cc(N(C)C)ccn2)C(c2ccc(C)cc2Cl)N=C(Nc2nc3ccc(F)cc3o2)N1 (stereo not drawn) .
Output line: 6.85 µM

Input line: Determine from records and report IC50 for CC1=C(C(=O)Nc2cc(N(C)C)ccn2)C(c2ccc(C)cc2Cl)N=C(Nc2nc3cccc(N)c3o2)N1 (stereo not drawn)
Output line: 15.3 µM
